tested on: PPARg DBDmut:RXRa IVT, anti-PPARg (DBD mutation: PPARg1 K132A/R137A, NR concentration 270 nM, RXRa partner concentration 90 nM); test: PBM binding z-score (relative to random genomic background probes); higher = stronger binding; sequences stand for … in GC…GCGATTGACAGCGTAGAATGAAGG
READOUT_TYPE: PBM binding z-score

>>> value_reported("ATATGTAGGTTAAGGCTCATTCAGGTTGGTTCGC")
5.15
>>> value_reported("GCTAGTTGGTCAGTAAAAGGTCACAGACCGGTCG")
-0.272
>>> value_reported("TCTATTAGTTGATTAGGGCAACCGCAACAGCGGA")
0.83
>>> value_reported("ATCTCTATGTAACAAGTTCAGTGAAAGAGAGGAC")
1.13
>>> value_reported("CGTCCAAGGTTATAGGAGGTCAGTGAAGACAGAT")
0.293
>>> value_reported("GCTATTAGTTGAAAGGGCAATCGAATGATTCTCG")
-0.234
>>> value_reported("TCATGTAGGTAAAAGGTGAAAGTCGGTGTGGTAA")
0.711
>>> value_reported("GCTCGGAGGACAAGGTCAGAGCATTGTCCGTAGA")
-1.46
>>> value_reported("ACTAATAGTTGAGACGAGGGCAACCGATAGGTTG")
-0.296
>>> value_reported("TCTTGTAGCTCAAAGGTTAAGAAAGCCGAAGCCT")
0.0313
>>> value_reported("GGATCGAGGGCAAGTTGATAGCAGAGTTTGATGG")
-0.16

###

system: PPARg DBDmut IVT, anti-PPARg (DBD mutation: PPARg1 K132A/R137A, NR concentration 270 nM); experiment: PBM binding z-score (relative to random genomic background probes); higher = stronger binding; sequences stand for … in GC…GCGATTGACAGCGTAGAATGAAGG
Tick y if PBM binding z-score is 0.2 or greater. Tick n if PBM binding z-score is less than 0.2.

>>> class_assignment("CAAACTAAGTCAAGGTCAAAGTCGGTTTGTGCCA")
"y"
>>> class_assignment("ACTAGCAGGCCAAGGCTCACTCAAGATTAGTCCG")
"n"
>>> class_assignment("AATACAGGGTCACTAGGCGAGAGTAGGTACGAAT")
"y"
>>> class_assignment("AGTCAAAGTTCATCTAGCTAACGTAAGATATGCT")
"y"
>>> class_assignment("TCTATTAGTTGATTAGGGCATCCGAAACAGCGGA")
"y"
>>> class_assignment("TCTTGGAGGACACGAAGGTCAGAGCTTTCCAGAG")
"n"
>>> class_assignment("TCATATAGGTAGACAGGTGAAAGTCCGTAAGTTA")
"y"
>>> class_assignment("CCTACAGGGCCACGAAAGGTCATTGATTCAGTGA")
"n"
>>> class_assignment("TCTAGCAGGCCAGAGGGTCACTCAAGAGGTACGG")
"n"
>>> class_assignment("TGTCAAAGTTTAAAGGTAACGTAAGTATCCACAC")
"y"
>>> class_assignment("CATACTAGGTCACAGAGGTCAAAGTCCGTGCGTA")
"y"
>>> class_assignment("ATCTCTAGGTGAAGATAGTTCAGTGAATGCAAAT")
"y"
>>> class_assignment("ATCGAAAGGTCGACGACGTGAGTATACACCGTTT")
"y"
>>> class_assignment("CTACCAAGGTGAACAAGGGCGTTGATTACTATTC")
"y"
>>> class_assignment("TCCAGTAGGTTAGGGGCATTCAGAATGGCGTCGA")
"y"
>>> class_assignment("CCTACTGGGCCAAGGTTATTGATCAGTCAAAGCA")
"n"
>>> class_assignment("TGACCAAGGTGAGCTGAGGTCGTTGATCCAACTC")
"n"
>>> class_assignment("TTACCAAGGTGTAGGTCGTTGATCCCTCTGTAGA")
"n"
>>> class_assignment("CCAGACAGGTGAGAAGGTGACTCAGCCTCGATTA")
"n"

###

Known PBM binding z-score of a selection of sequences
system: RARa homodimer (NR concentration 270 nM); test: PBM binding z-score (relative to random genomic background probes); higher = stronger binding; sequences stand for … in GC…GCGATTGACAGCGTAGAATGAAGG
READOUT_TYPE: PBM binding z-score

>>> value_reported("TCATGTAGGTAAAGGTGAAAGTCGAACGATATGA")
0.733
>>> value_reported("CCTGCTAGGTCATGGTCAGATAATCTACAGTATG")
0.0727
>>> value_reported("CCGACTGGGGCAGAAAGGATACCATACCATCCGG")
-0.437
>>> value_reported("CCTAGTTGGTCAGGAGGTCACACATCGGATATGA")
1.58
>>> value_reported("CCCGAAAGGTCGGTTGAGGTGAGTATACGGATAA")
0.922
>>> value_reported("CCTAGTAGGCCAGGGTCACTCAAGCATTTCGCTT")
-0.346
>>> value_reported("TCGAGTAGGTTAGGGGCTTTCAGAATGGCGTCGA")
0.102
>>> value_reported("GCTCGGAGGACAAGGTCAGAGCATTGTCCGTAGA")
-0.974
>>> value_reported("ATAGACAGGTGAGTGAAGGTAACTCAGCTGGACG")
-0.0264
>>> value_reported("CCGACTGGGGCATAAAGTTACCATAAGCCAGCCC")
-0.145
>>> value_reported("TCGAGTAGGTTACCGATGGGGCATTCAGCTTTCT")
-0.625

###

test system: RARa homodimer (NR concentration 270 nM); assay: PBM binding z-score (relative to random genomic background probes); higher = stronger binding; sequences stand for … in GC…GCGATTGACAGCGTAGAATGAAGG
Tick true (1) if PBM binding z-score is 0.4 or greater. Tick false (0) if PBM binding z-score is less than 0.4.

>>> class_assignment("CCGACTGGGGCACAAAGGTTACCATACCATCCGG")
"false (0)"
>>> class_assignment("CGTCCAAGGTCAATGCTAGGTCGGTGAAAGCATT")
"true (1)"
>>> class_assignment("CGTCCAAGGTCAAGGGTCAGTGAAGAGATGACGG")
"true (1)"
>>> class_assignment("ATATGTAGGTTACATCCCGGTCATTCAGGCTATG")
"true (1)"
>>> class_assignment("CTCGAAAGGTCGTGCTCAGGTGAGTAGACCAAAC")
"false (0)"
>>> class_assignment("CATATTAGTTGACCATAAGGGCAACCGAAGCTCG")
"true (1)"
>>> class_assignment("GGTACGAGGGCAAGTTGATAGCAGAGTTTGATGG")
"false (0)"
>>> class_assignment("ATCTCTAGGTAACGAGTTCAGTGAAAGAGAGGAC")
"true (1)"
>>> class_assignment("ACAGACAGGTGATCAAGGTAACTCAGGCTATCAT")
"false (0)"
>>> class_assignment("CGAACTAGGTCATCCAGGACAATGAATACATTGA")
"true (1)"
>>> class_assignment("TCTTGTAGATCAAGCAGGTTAAGATAGCCTGAGT")
"false (0)"
>>> class_assignment("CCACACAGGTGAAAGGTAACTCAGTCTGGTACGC")
"true (1)"

###

test system: RXRa homodimer (NR concentration 180 nM); test: PBM binding z-score (relative to random genomic background probes); higher = stronger binding; sequences stand for … in GC…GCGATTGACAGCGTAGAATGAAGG
Known PBM binding z-score of a selection of sequences
READOUT_TYPE: PBM binding z-score

>>> value_reported("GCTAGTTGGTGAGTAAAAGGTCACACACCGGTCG")
5.35
>>> value_reported("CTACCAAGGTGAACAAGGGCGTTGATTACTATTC")
0.725
>>> value_reported("CGTCCAAGGTCAAGGACAGTGAAAGAGACTCGAA")
5.3
>>> value_reported("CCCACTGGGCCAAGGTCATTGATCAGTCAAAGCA")
3.2
>>> value_reported("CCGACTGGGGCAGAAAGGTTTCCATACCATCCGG")
-0.284
>>> value_reported("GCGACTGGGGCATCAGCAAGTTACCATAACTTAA")
0.208
>>> value_reported("TCTGCTAGGTCAGTAGGTCAGCTAACGAGCTGCC")
2.36
>>> value_reported("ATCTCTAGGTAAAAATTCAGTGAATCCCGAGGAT")
0.184
>>> value_reported("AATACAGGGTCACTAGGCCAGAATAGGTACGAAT")
5.58
>>> value_reported("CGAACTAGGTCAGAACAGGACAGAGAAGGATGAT")
1.2
>>> value_reported("GCGACTGGGGAAAAGCAGGTTACCATAAGGTTGG")
0.275
>>> value_reported("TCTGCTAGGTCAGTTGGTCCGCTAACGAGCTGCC")
0.727
>>> value_reported("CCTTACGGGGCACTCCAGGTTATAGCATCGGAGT")
0.523
>>> value_reported("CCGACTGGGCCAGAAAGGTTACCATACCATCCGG")
1.58
>>> value_reported("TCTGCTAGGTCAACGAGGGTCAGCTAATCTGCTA")
3.94
